Target: human TrkA receptor (Homo sapiens (Human))
Sequence (P04629 33-796): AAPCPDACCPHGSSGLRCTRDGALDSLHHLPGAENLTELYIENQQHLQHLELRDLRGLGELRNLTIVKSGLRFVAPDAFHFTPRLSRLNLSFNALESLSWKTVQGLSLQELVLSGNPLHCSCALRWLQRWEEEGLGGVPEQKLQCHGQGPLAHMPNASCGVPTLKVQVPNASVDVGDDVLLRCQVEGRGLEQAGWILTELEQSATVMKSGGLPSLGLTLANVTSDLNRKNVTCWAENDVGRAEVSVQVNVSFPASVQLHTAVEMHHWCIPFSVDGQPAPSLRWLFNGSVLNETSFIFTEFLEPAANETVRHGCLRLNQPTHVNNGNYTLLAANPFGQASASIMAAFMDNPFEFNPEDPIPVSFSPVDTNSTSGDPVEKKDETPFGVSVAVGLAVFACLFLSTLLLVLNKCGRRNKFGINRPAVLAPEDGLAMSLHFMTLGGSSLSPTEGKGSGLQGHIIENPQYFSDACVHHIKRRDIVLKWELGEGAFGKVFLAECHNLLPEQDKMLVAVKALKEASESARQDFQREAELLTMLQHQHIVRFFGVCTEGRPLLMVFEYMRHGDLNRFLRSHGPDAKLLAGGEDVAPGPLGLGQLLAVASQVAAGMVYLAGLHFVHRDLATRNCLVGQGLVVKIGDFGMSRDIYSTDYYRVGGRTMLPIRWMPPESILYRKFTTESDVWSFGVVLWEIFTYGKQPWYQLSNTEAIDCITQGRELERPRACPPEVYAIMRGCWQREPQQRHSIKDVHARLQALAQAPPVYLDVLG
Test: DiscoverX PathHunter TrkA functional assay (NGF-stimulated U2OS cells)
Conditions: U2OS cells expressing human TrkA-PK, Shc1-EA and p75NTR; compound 1 h, then NGF at ~80% of maximal response for 3 h; luminescence
pIC50: −log10 of the molar value.
Form field: pIC50 (one value per entry).
Parameter Measured: pIC50

1) Cn1ccc(-c2cc(C(=O)Nc3cnc4c(c3-c3ccccc3)CCNC4=O)ccc2C(F)(F)F)n1: 6.59
2) Cn1ccc(-c2cc(C(=O)Nc3cnc(CN4CCCCC4=O)nc3-c3ccccc3)c(F)cc2C(F)(F)F)n1: 9.00
3) CNC(=O)N1CCc2nc(-c3ccccc3)c(NC(=O)c3cc(-c4ncccn4)c(C(F)(F)F)cc3F)cc2C1: 7.85
4) Cn1ccc(-c2cc(C(=O)Nc3cc4c(nc3-c3ccccc3)CNC4)c(F)cc2C(F)(F)F)n1: 8.54
5) Cn1ccc(-c2cc(C(=O)Nc3cnc(N)nc3-c3ccccc3)c(F)cc2C(F)(F)F)n1: 8.55
6) Cn1ccc(-c2cc(C(=O)Nc3cnc(CO)nc3-c3ccccc3)ccc2C(F)(F)F)n1: 8.14
